experimental_system: ScLsb4
experimental_protocol: SPOT peptide array binding signal intensity (averaged, normalized) (arbitrary units (background-subtracted, floor 0; scale differs between SH3 domains)); higher = stronger binding of the SH3 domain to the peptide
measured_parameter: SPOT peptide array binding signal intensity
No unit in the answer, please; the number alone is enough.

Inquiry: Could you tell me which SPOT peptide array binding signal intensity is on file for RLSRLLLSLPPESFT ?
Reply text: 4.5

Inquiry: Could you tell me which SPOT peptide array binding signal intensity is on file for NLKKRPPTAPQRKIS ?
Reply text: 100

Inquiry: Could you tell me which SPOT peptide array binding signal intensity is on file for SRQAIPPPVPNRPGG ?
Reply text: 2540

Inquiry: Could you tell me which SPOT peptide array binding signal intensity is on file for NGRRRPKFRVQLSGN ?
Reply text: 42.5

Inquiry: Could you tell me which SPOT peptide array binding signal intensity is on file for SSAAPPPPPRRATPE ?
Reply text: 711

Inquiry: Could you tell me which SPOT peptide array binding signal intensity is on file for LPPPPPPPPPPPLPQ ?
Reply text: 1.5

Inquiry: Could you tell me which SPOT peptide array binding signal intensity is on file for NMLKKKPLKKPLKRF ?
Reply text: 94

Inquiry: Could you tell me which SPOT peptide array binding signal intensity is on file for ILARAILTIPRVLDK ?
Reply text: 5

Inquiry: Could you tell me which SPOT peptide array binding signal intensity is on file for VQKRKLPLPGSIASA ?
Reply text: 11.5

Inquiry: Could you tell me which SPOT peptide array binding signal intensity is on file for QNTPPLPPKPKSPHL ?
Reply text: 52
